System: DLD1 NRF2-WT
Assay: drug sensitivity score (DSS) viability (DSS score); higher = more sensitive; extreme values may be limits of the assay
Details: 72 h; CellTiter-Glo viability
With a cut-off of 1, any drug sensitivity score strictly below it is called Condition met; any drug sensitivity score meeting it or above is called Condition not met.

Example entries begin here.
[
  {
    "molecule": "CC[C@@](C)(Nc1ccnc(-c2c[nH]c3ncccc23)n1)C(=O)NCC(F)(F)F [Decernotinib]",
    "assigned-label": "Condition met"
  },
  {
    "molecule": "NC(=O)Nc1cc(-c2cccc(F)c2)sc1C(=O)N[C@H]1CCCNC1 [AZD7762]",
    "assigned-label": "Condition not met"
  },
  {
    "molecule": "COc1cc2c(cc1OCCCN1CCCC1)N=C(N)C21CCC1 [A-366]",
    "assigned-label": "Condition met"
  },
  {
    "molecule": "COc1cccc2c1C(=O)c1c(O)c3c(c(O)c1C2=O)C[C@@](O)(C(C)=O)C[C@@H]3O[C@H]1C[C@H](N)[C@H](O)[C@H](C)O1 [Daunorubicin]",
    "assigned-label": "Condition not met"
  },
  {
    "molecule": "C=CC(=O)N1CCC(Oc2cc3c(Nc4ccc(Cl)c(Cl)c4F)ncnc3cc2OC)CC1 [Poziotinib]",
    "assigned-label": "Condition not met"
  },
  {
    "molecule": "CC(C)(C)Cn1c(N)nc2ccc(-c3[nH]c(C(C)(C)C)nc3-c3ccc(F)cc3)nc21 [Ralimetinib]",
    "assigned-label": "Condition not met"
  }
]

In the record for Cc1nc(=O)c2cc(CN(C)c3ccc(C(=O)N[C@@H](CCC(=O)O)C(=O)O)s3)ccc2[nH]1 [Raltitrexed] , is drug sensitivity score less than 1? Condition not met

###

Quick reference for drug sensitivity score among some molecules
Test system: DLD1 NRF2-GOF
Assay: drug sensitivity score (DSS) cytotoxicity (DSS score); higher = more toxic; extreme values may be limits of the assay
Conditions: 72 h; CellTox Green cytotoxicity
Kindly provide the number alone.

[
  {
    "smiles-repr": "CCNCCS(=O)(=O)NC[C@@]1(c2ccccc2)SC(NC(=O)C(C)(C)C)=NN1C(=O)C(C)(C)C",
    "test-value": 1.6
  }
]

// sample `CN(C)CC#Cc1ccc(OCCCc2sc(N3CCc4cccc(C(=O)Nc5nc6ccccc6s5)c4C3)nc2C(=O)O)c(F)c1` , its drug sensitivity score was 3.3

// sample `CS(=O)(=O)c1ccc(C(=O)Nc2ccc(Cl)c(-c3ccccn3)c2)c(Cl)c1` , its drug sensitivity score was 0

// sample `CN[C@@H](C)C(=O)N[C@H](C(=O)N1CCC[C@H]1c1nc(C(=O)c2ccc(F)cc2)cs1)C1CCCCC1` , its drug sensitivity score was 0

// sample `Cc1noc2c1-c1ccccc1C(c1ccc(Cl)cc1)=N[C@H]2CC(N)=O` , its drug sensitivity score was 0

// sample `Cc1cccc(CC(=O)N2CCc3c2ccc(-c2cn(C)c4ncnc(N)c24)c3F)n1` , its drug sensitivity score was 0

// sample `C/C=C1\NC(=O)[C@H]2CSSCC/C=C/[C@H](CC(=O)N[C@H](C(C)C)C(=O)N2)OC(=O)[C@H](C(C)C)NC1=O` , its drug sensitivity score was 2.9

// sample `CC(=O)c1cc2c(o1)C(=O)c1ccccc1C2=O` , its drug sensitivity score was 19.6

// sample `C[C@@]1(C(=O)Nc2ccc(F)nc2)CCCN1c1nc(Nc2cc(C3CC3)n[nH]2)c2cccn2n1` , its drug sensitivity score was 11

###

Quick reference for TC50 cytotoxicity among some molecules
Tested on: DLD1 NRF2-GOF
Test: TC50 cytotoxicity; higher = less toxic
Details: 72 h; CellTox Green cytotoxicity

[
  {
    "molecule": "CN(Cc1cnc2nc(N)nc(N)c2n1)c1ccc(C(=O)N[C@@H](CCC(=O)O)C(=O)O)cc1 [Methotrexate]",
    "TC50 cytotoxicity": "> 5 µM"
  },
  {
    "molecule": "Cc1cc(Nc2ncc(Cl)c(Nc3ccccc3S(=O)(=O)C(C)C)n2)c(OC(C)C)cc1C1CCNCC1 [Ceritinib]",
    "TC50 cytotoxicity": "> 2.5 µM"
  },
  {
    "molecule": "C=CC(=O)Nc1cccc(Nc2nc(Nc3ccc(OCCOC)cc3)ncc2F)c1 [Spebrutinib]",
    "TC50 cytotoxicity": "> 1 µM"
  },
  {
    "molecule": "CCNc1nc(Nc2cc(F)c(C(=O)N3CCOCC3)cc2OC)ncc1C(F)(F)F [GNE-7915]",
    "TC50 cytotoxicity": "> 1 µM"
  },
  {
    "molecule": "Cc1cn(-c2cc(NC(=O)c3ccc(C)c(Nc4nccc(-c5cnccn5)n4)c3)cc(C(F)(F)F)c2)cn1 [Radotinib]",
    "TC50 cytotoxicity": "> 10 µM"
  },
  {
    "molecule": "Cc1ncc(-c2ccnc(Nc3ccc(S(C)(=O)=O)cc3)n2)n1C(C)C [AZD-5438]",
    "TC50 cytotoxicity": "> 10 µM"
  },
  {
    "molecule": "CC/C(=C(\\c1ccccc1)c1ccc(OCCN(C)C)cc1)c1ccccc1 [Tamoxifen]",
    "TC50 cytotoxicity": "> 10 µM"
  }
]

Field: next molecule
// sample COc1ncc(-c2ccc3nccc(-c4ccnnc4)c3c2)cc1NS(=O)(=O)c1ccc(F)cc1F [Omipalisib] , its TC50 cytotoxicity was > 1 µM

###

Test system: DLD1 NRF2-GOF
Experiment: TC50 cytotoxicity; higher = less toxic
Conditions: 72 h; CellTox Green cytotoxicity
value-type: TC50 cytotoxicity

// sample COc1cc2c(cc1OCCCN1CCCC1)N=C(N)C21CCC1 [A-366] , its TC50 cytotoxicity was > 25 µM

###

Tested on: DLD1 NRF2-WT
Experiment: drug sensitivity score (DSS) viability (DSS score); higher = more sensitive; extreme values may be limits of the assay
Settings: 72 h; CellTiter-Glo viability
value-type: drug sensitivity score
Kindly provide the number alone.

[
  {
    "molecule": "Sc1ncnc2nc[nH]c12 [Mercaptopurine]",
    "test-value": 2.1
  },
  {
    "molecule": "CO[C@H]1C[C@@H]2CC[C@@H](C)[C@@](O)(O2)C(=O)C(=O)N2CCCC[C@H]2C(=O)O[C@H]([C@H](C)C[C@@H]2CC[C@@H](OCCO)[C@H](OC)C2)CC(=O)[C@H](C)/C=C(\\C)[C@@H](O)[C@@H](OC)C(=O)[C@H](C)C[C@H](C)/C=C/C=C/C=C/1C [Everolimus]",
    "test-value": 4.7
  },
  {
    "molecule": "CNC(=O)c1ccccc1Sc1ccc2c(/C=C/c3ccccn3)n[nH]c2c1 [Axitinib]",
    "test-value": 2.4
  },
  {
    "molecule": "NC1(C(=O)N[C@@H](CCO)c2ccc(Cl)cc2)CCN(c2ncnc3[nH]ccc23)CC1 [AZD-5363]",
    "test-value": 6.1
  },
  {
    "molecule": "Cn1c(=O)n(-c2ccc(C(C)(C)C#N)cc2)c2c3cc(-c4cnc5ccccc5c4)ccc3ncc21 [Dactolisib]",
    "test-value": 13.9
  }
]

// sample Nc1ccn([C@@H]2O[C@H](CO)[C@@H](O)C2(F)F)c(=O)n1 [Gemcitabine] , its drug sensitivity score was 11.4

// sample `O=C(NOC[C@H](O)CO)c1ccc(F)c(F)c1Nc1ccc(I)cc1F` , its drug sensitivity score was 2

###

Quick reference for drug sensitivity score among some compounds
Test system: DLD1 NRF2-WT
Assay: drug sensitivity score (DSS) cytotoxicity (DSS score); higher = more toxic; extreme values may be limits of the assay
Conditions: 72 h; CellTox Green cytotoxicity
Kindly provide the number alone.

[
  {
    "compound": "NC(=O)Nc1cc(-c2cccc(F)c2)sc1C(=O)N[C@H]1CCCNC1",
    "target-system": "DLD1 NRF2-WT",
    "drug sensitivity score": 2.2
  }
]

// sample `COc1cc2nccc(Oc3ccc(NC(=O)Nc4cc(C)on4)c(Cl)c3)c2cc1OC` , its drug sensitivity score was 2.3

// sample `COc1cccc2c1C(=O)c1c(O)c3c(c(O)c1C2=O)C[C@@](O)(/C(CO)=N/NC(=O)CCCCCN1C(=O)C=CC1=O)C[C@@H]3O[C@H]1C[C@H](N)[C@H](O)[C@H](C)O1` , its drug sensitivity score was 0

// sample `Cc1c(C(=O)Nc2ccc(N3C[C@@H](C)O[C@@H](C)C3)nc2)cccc1-c1ccc(OC(F)(F)F)cc1` , its drug sensitivity score was 0

// sample `NS(=O)(=O)OC[C@@H]1C[C@@H](n2ccc3c(N[C@H]4CCc5ccccc54)ncnc32)C[C@@H]1O` , its drug sensitivity score was 0

// sample Cc1cc(C(C)Nc2ccccc2)c2nc(N3CCOCC3)cc(=O)n2c1 (centres undefined) , its drug sensitivity score was 0

// sample `CNC(=O)c1cccc2cc(Oc3ccnc4cc(OCC5(N)CC5)c(OC)cc34)ccc12` , its drug sensitivity score was 0

// sample `C[C@H]1Oc2cc(cnc2N)-c2c(nn(C)c2C#N)CN(C)C(=O)c2ccc(F)cc21` , its drug sensitivity score was 0

// sample `Cc1noc2c1-c1ccccc1C(c1ccc(Cl)cc1)=N[C@H]2CC(N)=O` , its drug sensitivity score was 0

// sample `Cc1cnc(NC(=O)Nc2cc(Br)c(C)cc2OC[C@@H]2CNCCO2)cn1` , its drug sensitivity score was 0

// sample `NC1(C(=O)N[C@@H](CCO)c2ccc(Cl)cc2)CCN(c2ncnc3[nH]ccc23)CC1` , its drug sensitivity score was 0

// sample `Nc1nc(N)c2nc(-c3cccc(O)c3)c(-c3cccc(O)c3)nc2n1` , its drug sensitivity score was 0

// sample `CCN(CC)CCNC(=O)c1c(C)[nH]c(/C=C2\C(=O)Nc3ccc(-c4csc(-c5ccccc5)n4)cc32)c1C` , its drug sensitivity score was 0

// sample `CO[C@@H]1[C@H](N(C)C(=O)c2ccccc2)C[C@H]2O[C@]1(C)n1c3ccccc3c3c4c(c5c6ccccc6n2c5c31)C(=O)NC4` , its drug sensitivity score was 12.4
